- protocol text: in vivo
- condition parameters: rat, po
Let's look at some molecules and their measured LD50 at 72 h.
Output spec: scalar in mg/kg, unitless text.

1) Cc1nc(Oc2ccccc2)sc1C(C)C(=O)O (centres unmarked) [Example 48-140] :: 1200

Consider the additional molecule presented here.
Summary for this molecule, CC(=O)Oc1ccccc1C(=O)O [Acetylsalicylic Acid, acetylsalicylic acid] : LD50 at 72 h is 2400

###

- Tested on: Wistar rat
- protocol text: Effect on Yeast-inflamed Foot
- Type: in vivo
- condition parameters: 2 h, oral, pain threshold two hours later, ED 100%
measured endpoint: ED100 (mg/kg)
Output spec: scalar in mg/kg, unitless text.

Summary for this molecule, CC(=O)Oc1ccccc1C(=O)O [Acetylsalicylic Acid, acetylsalicylic acid] : ED100 is 250

Summary for this molecule, CCCCC1C(=O)N(c2ccccc2)N(c2ccccc2)C1=O [Phenylbutazone, phenylbutazone] : ED100 is 130

Summary for this molecule, CC(C(=O)O)c1ccc(Oc2nccs2)cc1 (stereo not shown) [Example 48-156] : ED100 is 28

Summary for this molecule, Cc1nc(Oc2ccccc2)sc1C(C)C(=O)O (stereo not shown) [Example 48-140] : ED100 is 110
